- ASSAY_TEXT: Heavy metal removal ability test in contaminated soil (ICP-MS), cadmium
- CONDITIONS: content 0.5% aqueous solution; contaminated soil
Reported Cadmium (Cd) Adsorption amount by item:
MEASUREMENT_KIND: Cadmium (Cd) Adsorption amount (ppm)

{"columns": ["COMPOUND", "UNIT_ABBREVIATION", "OBSERVED_VALUE"],
 "data": [
  ["O=C(O)c1ccc(N2CCN(c3ccc(C(=O)O)cc3)CCN(c3ccc(C(=O)O)cc3)CCN(c3ccc(C(=O)O)cc3)CC2)cc1", "ppm", 61],
  ["O=C(O)c1ccc(N2CCN(c3ccc(C(=O)O)o3)CCN(c3ccc(C(=O)O)o3)CCN(c3ccc(C(=O)O)o3)CC2)o1", "ppm", 61],
  ["C1CNCCNCCNCCN1", "ppm", 69],
  ["O=C(O)CN(CCN(CC(=O)O)CC(=O)O)CC(=O)O [Control (EDTA), ethylenediaminetetraacetic acid, reference compound]", "ppm", 41],
  ["O=C(O)c1ccc(N2CCCN(c3ccc(C(=O)O)cc3)CCN(c3ccc(C(=O)O)cc3)CCCN(c3ccc(C(=O)O)cc3)CC2)cc1", "ppm", 58],
  ["O=C(O)c1ccc(N(CCN(CCN(c2ccc(C(=O)O)cc2)c2ccc(C(=O)O)cc2)c2ccc(C(=O)O)cc2)CCN(c2ccc(C(=O)O)cc2)c2ccc(C(=O)O)cc2)cc1", "ppm", 75],
  ["O=C(O)CN1CCN(CC(=O)O)CCN(CC(=O)O)CCN(CC(=O)O)CC1", "ppm", 60],
  ["O=C(O)c1cncc(N2CCN(c3cncc(C(=O)O)c3)CCN(c3cncc(C(=O)O)c3)CCN(c3cncc(C(=O)O)c3)CC2)c1", "ppm", 62],
  ["O=C(O)c1ccc(N(CCN(CCN(c2ccc(C(=O)O)o2)c2ccc(C(=O)O)o2)c2ccc(C(=O)O)o2)CCN(c2ccc(C(=O)O)o2)c2ccc(C(=O)O)o2)o1", "ppm", 67],
  ["O=C(O)CN(CCN(CCN(CC(=O)O)CC(=O)O)CC(=O)O)CCN(CC(=O)O)CC(=O)O", "ppm", 74],
  ["O=C(O)c1cncc(N2CCCN(c3cncc(C(=O)O)c3)CCN(c3cncc(C(=O)O)c3)CCCN(c3cncc(C(=O)O)c3)CC2)c1", "ppm", 59],
  ["O=C(O)c1ccc(N2CCCN(c3ccc(C(=O)O)o3)CCN(c3ccc(C(=O)O)o3)CCCN(c3ccc(C(=O)O)o3)CC2)o1", "ppm", 61],
  ["O=C(O)CN1CCCN(CC(=O)O)CCN(CC(=O)O)CCCN(CC(=O)O)CC1", "ppm", 61],
  ["NCCNCCNCCN [Trientine, Triethylenetetramine, reference compound]", "ppm", 68]
]}
